- System: KCC2 (Monodelphis domestica, UniProt F6WQ48)
- Construct: N-terminal His and FLAG tag
- Sequence (F6WQ48 1-1115): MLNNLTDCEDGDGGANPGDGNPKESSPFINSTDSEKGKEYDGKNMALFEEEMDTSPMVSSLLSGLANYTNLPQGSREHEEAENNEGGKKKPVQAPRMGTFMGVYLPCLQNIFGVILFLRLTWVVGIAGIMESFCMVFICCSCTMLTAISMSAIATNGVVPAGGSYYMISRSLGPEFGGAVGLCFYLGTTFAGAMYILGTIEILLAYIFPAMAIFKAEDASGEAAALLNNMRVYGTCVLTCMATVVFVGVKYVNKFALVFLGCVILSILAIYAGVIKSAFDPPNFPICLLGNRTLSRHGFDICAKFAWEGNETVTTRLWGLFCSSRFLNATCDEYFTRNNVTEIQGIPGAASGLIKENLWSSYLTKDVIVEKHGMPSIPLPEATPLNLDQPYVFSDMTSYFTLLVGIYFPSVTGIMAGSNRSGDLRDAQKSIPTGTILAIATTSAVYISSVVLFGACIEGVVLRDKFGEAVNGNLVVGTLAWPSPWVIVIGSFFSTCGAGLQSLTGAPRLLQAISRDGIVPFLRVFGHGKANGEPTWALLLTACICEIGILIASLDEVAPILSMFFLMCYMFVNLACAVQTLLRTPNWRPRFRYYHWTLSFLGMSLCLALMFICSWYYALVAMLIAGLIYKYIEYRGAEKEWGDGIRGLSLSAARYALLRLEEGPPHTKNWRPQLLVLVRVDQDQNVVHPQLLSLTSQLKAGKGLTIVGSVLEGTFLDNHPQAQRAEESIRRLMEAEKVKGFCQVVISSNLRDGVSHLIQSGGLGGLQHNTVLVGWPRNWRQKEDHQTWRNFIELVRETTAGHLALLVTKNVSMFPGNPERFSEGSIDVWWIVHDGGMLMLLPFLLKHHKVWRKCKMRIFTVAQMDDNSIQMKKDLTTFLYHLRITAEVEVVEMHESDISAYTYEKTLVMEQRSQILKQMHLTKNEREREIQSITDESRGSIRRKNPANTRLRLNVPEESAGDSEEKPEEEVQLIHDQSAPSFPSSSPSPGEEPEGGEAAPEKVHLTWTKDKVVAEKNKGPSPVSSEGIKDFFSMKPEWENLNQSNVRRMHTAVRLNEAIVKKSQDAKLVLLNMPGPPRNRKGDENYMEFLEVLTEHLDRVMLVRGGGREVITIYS
- Assay method text: SPR steady-state affinity on covalently immobilized KCC2
pKd: −log10 of the molar value.
Experimental endpoint: pKd

[[record]]
input_smiles = "Cc1csc(N(C(=O)CSc2ccc(-c3ccccc3)nn2)C2CC2)n1"
meas_value = 6.12

